Biological target: Serine/threonine-protein kinase haspin (Homo sapiens, UniProt Q8TF76)
Sequence (Q8TF76 whole entry): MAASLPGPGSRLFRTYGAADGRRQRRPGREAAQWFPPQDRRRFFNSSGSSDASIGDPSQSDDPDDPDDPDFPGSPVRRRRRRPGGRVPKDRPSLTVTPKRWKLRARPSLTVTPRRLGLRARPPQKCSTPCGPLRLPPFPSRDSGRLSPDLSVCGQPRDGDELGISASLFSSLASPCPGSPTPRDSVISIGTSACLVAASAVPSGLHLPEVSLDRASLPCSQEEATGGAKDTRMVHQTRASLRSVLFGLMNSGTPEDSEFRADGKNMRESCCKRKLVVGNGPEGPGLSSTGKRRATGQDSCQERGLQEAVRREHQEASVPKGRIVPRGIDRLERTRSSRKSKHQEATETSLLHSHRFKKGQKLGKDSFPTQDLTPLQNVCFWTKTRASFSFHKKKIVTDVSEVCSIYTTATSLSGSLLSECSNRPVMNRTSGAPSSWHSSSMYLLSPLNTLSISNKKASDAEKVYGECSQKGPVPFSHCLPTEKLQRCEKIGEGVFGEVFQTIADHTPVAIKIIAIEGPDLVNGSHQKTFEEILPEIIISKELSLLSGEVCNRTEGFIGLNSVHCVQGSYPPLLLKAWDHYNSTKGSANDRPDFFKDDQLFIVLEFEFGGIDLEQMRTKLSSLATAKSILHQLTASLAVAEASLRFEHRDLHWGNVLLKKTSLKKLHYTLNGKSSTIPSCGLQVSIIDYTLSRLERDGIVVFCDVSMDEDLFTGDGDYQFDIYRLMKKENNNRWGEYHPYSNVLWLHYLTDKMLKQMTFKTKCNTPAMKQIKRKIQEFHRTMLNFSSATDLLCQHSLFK
recorded_metric: IC50 (nM)

smiles_repr | value_unit | observed
COc1ccc2c3ccnc(C(C)C)c3n(CCCCN)c2c1 | nM | 460
COc1ccc2c3ccncc3n(CCCCN)c2c1 | nM | 300
COc1ccc2c3ccnc(C)c3n(CCCCN(C)C)c2c1 | nM | 470
NCCCCn1c2cc(O)ccc2c2ccnc(C(F)(F)F)c21 | nM | 220
COc1ccc2c3ccnc(C)c3n(CCCCN)c2c1 | nM | 170
Cc1nccc2c3cc4c(cc3n(CCCCN)c12)OCO4 | nM | 500
